experiment: reversers of MRP drug resistance, dose response, cell-based (AID 741); details: MRP-overexpressing cells, viability with/without cytotoxic drug; stronger effect = higher value
Inconclusive results are not listed.
readout-type: toxicity enhancement factor
Answer as a number with no unit attached.

Query :: Entry "Cc1nc(N2CCN(C)CC2)c2sc(=S)n(-c3ccccc3)c2n1" : reported toxicity enhancement factor = ?
Result :: 0.0596

Query :: Entry "COc1ccc(C(=O)Nc2nc3ccccc3[nH]2)cc1OC" : reported toxicity enhancement factor = ?
Result :: -0.0002

Query :: Entry "COC(=O)Nc1ccc(S(=O)(=O)Nc2ccc(O)cc2)cc1" : reported toxicity enhancement factor = ?
Result :: -0.0016

Query :: Entry COc1ccc(N2C(N)=C(C#N)C(c3cccnc3)C3=C2CC(C)(C)CC3=O)cc1 (stereo not given) : reported toxicity enhancement factor = ?
Result :: 0.0615

Query :: Entry COC(=O)C(C)Sc1nnc2n(-c3cccc(C)c3)c(=O)c3c4c(sc3n12)CCCC4 (stereo not given) : reported toxicity enhancement factor = ?
Result :: 0.061

Query :: Entry COCC(C)OC(=O)C(C#N)c1nc2ccccc2nc1N1CCN(Cc2ccccc2)CC1 (stereo not given) : reported toxicity enhancement factor = ?
Result :: -0.0013

Query :: Entry "COc1ccc(/C=C/C(=O)Nc2ccccc2C(=O)O)cc1OC" : reported toxicity enhancement factor = ?
Result :: -0.0098

Query :: Entry CN1C(=O)C(CC(=O)Nc2ccc3c(c2)Cc2ccccc2-3)N(C)C1=O (stereo not given) : reported toxicity enhancement factor = ?
Result :: -0.0009

Query :: Entry COc1ccc(NC(=O)C2C3C=CC(C3)C2C(=O)NCc2ccccn2)c(OC)c1 (stereo not given) : reported toxicity enhancement factor = ?
Result :: -0.0167

Query :: Entry COc1ccc2cc(C(c3nnnn3C(C)(C)C)N3CCc4ccccc4C3)c(=O)[nH]c2c1 (stereo not given) : reported toxicity enhancement factor = ?
Result :: -0.0045
